Recorded growth inhibition, one value per entry.
ASSAY_NAME: NCI Yeast Anticancer Drug Screen. Data for the mlh1 rad18 strain (AID 175)
APPLIED_CONDITIONS: S. cerevisiae mlh1 rad18 strain growth inhibition; at 50.0 µM; hits give high values
The panel holds about 79,000 compounds, 15% with a hit somewhere; the sample as a whole holds those more often.

COMPOUND	growth inhibition / %
O=C(Nc1ccc([N+](=O)[O-])cc1)OC1CCS(=O)(=O)C1 (stereo not given)	-1.65
CC(C)C(=O)Nc1nc(OCCc2ccc([N+](=O)[O-])cc2)c2ncn(C3CC(O)C(CO)O3)c2n1 (stereo not given)	-11.8
CSc1cc(Br)ccc1-n1c(C(=O)c2ccccc2)c(SC)n(-c2ccccc2)c1=O	5.05
CN1CCCCC(C#N)(c2ccccc2)CC1 (stereo not given)	21.4
CCCCCO/C=C/CN1CCOCC1	-3.2
Cc1ccc(C2=NO[C@@H]3C(=O)N(c4ccc(Cc5ccc(N6C(=O)[C@H]7C(c8ccc(C)cc8)=NO[C@H]7C6=O)cc5)cc4)C(=O)[C@H]23)cc1	20.1
COc1ccc(OC)c(NC(=O)Sc2c(Cl)c(Cl)nc(Cl)c2Cl)c1	-10.2
COc1c(NC(=O)Nc2ccc(SC)cc2)cccc1[N+](=O)[O-]	9.65
Cn1cnc([N+](=O)[O-])c1SCC(=O)O	-3.7
CC(C)NC(=O)CC(NCc1ccccc1)C(=O)O (stereo not given)	10.2

* * *

Below, each of the compounds is paired with its reported growth inhibition value.
ASSAY_NAME: NCI Yeast Anticancer Drug Screen. Data for the mec2-1 strain (AID 157)
APPLIED_CONDITIONS: S. cerevisiae mec2-1 strain, at 50.0 µM, hits give high values
Description: Growth inhibition of yeast strains with defined genetic alterations is measured as a screen for potential anti-cancer activity. Selected strains with alterations in DNA damage repair or cell cycle control were exposed to compounds and growth inhibition was measured relative to vehicle treated controls. The strain used in this assay is mec2-1
Compounds without any hit were thinned out: in the full panel of roughly 79,000, 15% have a hit. Where a SMILES comes first, the peptide text is derived from it. [ ]: non-standard residue; d: D form. Hiv = CC(C)[C@H](O)C(=O)O

COMPOUND	growth inhibition (%)
CC1c2c(cc(=O)n(C)c2O)C(=O)N1C (stereo not given)	0.7
CN(C)c1ccc(C2(c3ccc(N(C)C)cc3)c3ccccc3C(=O)N2N)cc1	34.5
N#C/C(C(=N)c1ccccc1)=C1\SS/C(=C(\C#N)C(=N)c2ccccc2)S1	2.35
CCC12CC3(C(=O)OC)OC1C(O)CN1CCc4c(n3c3cc(OC)ccc43)C12 (stereo not given)	-42.1
CCC(CC)C1CC[N-]CC1.CCC(CC)C1CC[N-]CC1.CCC(CC)C1CC[N-]CC1.CCC(CC)C1CC[N-]CC1.N#C[S-].N#C[S-].[Co]	15.1
CCOC(=O)c1[nH]c2nc(N)ncc2c(=O)c1C	-0.95
CCNCCN(CC)CC	-5.75
O=C(/C=C/c1ccco1)c1ccc(NCc2nc3ccccc3[nH]2)cc1	-7
O=C(/C=N\O)Nc1ccccc1O	4.3
NC(=O)Nc1ccccc1	-8.6
CC/C=C(C)/C=N\NC(=O)c1ccc[n+](C)c1	12.6
CC(C)C(NC(=O)C1CCCN1)P(=O)(O)O (stereo not given)	1.7
CCCCCCCCCC(C(=O)OCC)(C(=O)OCC)C1CCCC1	-4.6
CC(C)[C@@H]1OC(=O)[C@@H](C)NC(=O)[C@@H]2CCCN2C1=O (cyclo([Hiv]-Pro-[dA]))	-6.75
CC1(C)N=C(/C(Cl)=[N+](/[O-])C(=O)c2ccc(Cl)cc2)C(C)(C)N1O	-26.9
O=c1c2cccnc2ncn1CCN1CCCC1	-11.6
CCN(CC)c1ccc(/C=N\N(C)C)cc1	-13.2
CCCCC#CCC#Cc1ccccc1	5.25
Nc1ccc(S(=O)(=O)n2cccc2)cc1	1.2
O=[n+]1c2ccccc2n([O-])c2cn(-c3ccccc3)c(-c3ccccc3)c21	67.4
CNC(=O)NC1NC(=O)N(C)C1=O (stereo not given)	-12.7
C=Cc1c(Cl)cccc1Cl	-8.85
O=C1c2ccccc2C(=O)N1CCn1nc(-c2ccccc2)cc(-c2ccccc2)c1=O	-2.35
CN(C)c1ccc(Cc2c[nH]c3ccccc3c2=O)cc1	12.8
Cc1c2ccccc2c(CN2CC(O)CC2C(=O)O)c2ccccc12 (stereo not given)	33.2
